Test system: SF-295 CNS
assay_notes: NCI-60 one-dose screen, 48 h (100 = growth as untreated, 0 = no growth, -100 = all killed)
assay_setup: 10 µM unless noted
Compounds without any hit were thinned out: in the full panel of roughly 83,000, 20% have a hit.
Kind request: treat 60% as inclusive, so growth at 60% or higher is 1.0, anything lower is 0.0.

Answered examples (3):
| compound | label |
| --- | --- |
| COc1cc(C(=O)/C=C/c2c(-c3ccc(F)cc3)nc3sc(C)cn23)cc(OC)c1OC | 0.0 |
| CC(C)C(=O)Nc1n[nH]c2cc(-c3cccc(NS(=O)(=O)C4CC4)c3)ccc12 | 0.0 |
| COc1cccc(-c2nn(-c3ccccc3)cc2-c2ccnc(NCCCNC(=O)c3ccc(F)cc3)c2)c1 | 0.0 |

Shift focus to the following entry.
*Q* Could you please find out whether CN(C)CC1=NC2SC=C(c3ccccc3)C2C(=O)N1CC#N (centres undefined) has growth that meets 60% or exceeds it?
*A* 1.0
